Data export: pIC50 values recorded with 5-hydroxytryptamine receptor 1D (Sus scrofa).
Sequence (P79400 whole entry): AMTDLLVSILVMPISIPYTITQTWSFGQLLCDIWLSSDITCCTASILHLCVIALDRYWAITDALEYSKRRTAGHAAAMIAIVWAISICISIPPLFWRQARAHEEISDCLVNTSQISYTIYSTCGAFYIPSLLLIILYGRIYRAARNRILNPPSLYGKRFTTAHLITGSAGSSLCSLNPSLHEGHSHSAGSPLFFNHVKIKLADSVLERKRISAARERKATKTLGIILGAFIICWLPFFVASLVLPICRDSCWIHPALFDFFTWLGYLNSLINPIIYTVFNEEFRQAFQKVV
Scale: pIC50 equals -log10([C]), with [C] in mol/L.

Entry c1ccc(CN2CCN(c3nc4ccccc4n4cccc34)CC2)cc1 : reported pIC50 = ?
4.62

Entry c1cnc2ccc3nc(N4CCN(Cc5ccc6c(c5)OCO6)CC4)c4cccn4c3c2c1 : reported pIC50 = ?
4.40

###

# system_name: 5-hydroxytryptamine receptor 1A (Bos taurus)
# experiment: Binding affinity against 5-hydroxytryptamine 1A receptor was measured using [3H]8-OH-DPAT as radioligand
assay_endpoint: log10 IC50 (log10 of the value in µM)
For clarity, the numbers are log10 values of IC50 expressed in µM.

# log10 IC50 lookup, item Clc1ccc2c(c1)nc(N1CCN(Cc3ccc4c(c3)OCO4)CC1)c1cccn12
0.98

State the recorded log10 IC50 for this entry: c1ccc(COc2ccc3nc(N4CCN(Cc5ccccc5)CC4)c4cccn4c3n2)cc1
1.74

Suppose we examine the compound Clc1ccc2nc(N3CCN(Cc4ccccc4)CC3)c3cccn3c2c1 ; what log10 IC50 value has been reported?
1.95

Which value of log10 IC50 has been reported for CN1CCN(c2nc3cccnc3n3cccc23)CC1 in the records?
-1.01

Any idea what log10 IC50 was measured for COc1ccc2nc(N3CCN(Cc4ccc(F)cc4)CC3)c3cccn3c2n1 ?
1.75

###

Give measured -Log IC50 for each item. Keep answers brief.
# system_name: Serotonin 3 (5-HT3) receptor
# experiment: Binding affinity against 5-hydroxytryptamine 3 receptor was measured using [3H]granisetron as radioligand
# Assay type: protein-complex assay
No unit in the answer, please; the number alone is enough.

Short answer please: -Log IC50, Serotonin 3 (5-HT3) receptor, entry C=CCN1CCN(c2nc3sccc3n3cccc23)CC1
9.04

Kindly state the measured -Log IC50 obtained for c1ccc(COc2ccc3nc(N4CCN(Cc5ccccc5)CC4)c4cccn4c3n2)cc1 with Serotonin 3 (5-HT3) receptor.
4.43

Return -Log IC50 measured with Serotonin 3 (5-HT3) receptor given this compound: Cc1ccc2c(c1)nc(N1CCN(Cc3ccc(F)cc3)CC1)c1cccn12
7.87

API: value(readout=-Log IC50, system=Serotonin 3 (5-HT3) receptor) for record C=CCN1CCN(c2nc3ccc4ncccc4c3n3cccc23)CC1
7.71

Recorded -Log IC50 for Clc1ccc(CN2CCN(c3nc4cccnc4n4cccc34)CC2)c(Cl)c1 with Serotonin 3 (5-HT3) receptor, please?
5.89

Recorded -Log IC50 for c1ccc(CN2CCN(c3nc4ccc5ncccc5c4n4cccc34)CC2)cc1 with Serotonin 3 (5-HT3) receptor, please?
7.51

Lookup: -Log IC50 / Serotonin 3 (5-HT3) receptor / Fc1ccc(CN2CCN(c3nc4cccnc4n4cccc34)CC2)cc1
8.58

Please provide the recorded -Log IC50 for c1ccc(CN2CCN(c3ncccc3-n3cccc3)CC2)cc1 , tested on Serotonin 3 (5-HT3) receptor.
7.34

Give -Log IC50 (Serotonin 3 (5-HT3) receptor) of the following compound: c1cnc2c(c1)nc(N1CCN(Cc3ccc4c(c3)OCO4)CC1)c1cccn12
9.1

Form field - read-out: -Log IC50; system: Serotonin 3 (5-HT3) receptor; submitted item: c1cnc2c(c1)nc(N1CCNCC1)c1cccn12
8.83

Tell me reported -Log IC50 for C=CCN1CCN(c2nc3cccnc3n3cccc23)CC1 , tested with Serotonin 3 (5-HT3) receptor.
11.4
